// data source = ChEMBL document CHEMBL1909046

# experiment_description: DRUGMATRIX: Sigma2 radioligand binding (ligand: [3H] Ifenprodil)
# Assay type: cell membranes, Rattus norvegicus, Wistar, Brain, Membrane
# study_conditions: Not Active = under 50% inhibition at 10 µM
quantity: Ki

INSERT INTO measurements (compound, experimental_result) VALUES
  ('Cc1cnc(C(=O)NCCc2ccc(S(=O)(=O)NC(=O)NC3CCCCC3)cc2)cn1 [GLIPIZIDE]', 'Not Active'),
  ('CO[C@H]1C[C@@H]2CC[C@@H](C)[C@@](O)(O2)C(=O)C(=O)N2CCCC[C@H]2C(=O)O[C@H]([C@H](C)C[C@@H]2CC[C@@H](O)[C@H](OC)C2)CC(=O)[C@H](C)/C=C(\C)[C@@H](O)[C@@H](OC)C(=O)[C@H](C)C[C@H](C)/C=C/C=C/C=C/1C [SIROLIMUS]', 'Not Active'),
  ('CNC(=C[N+](=O)[O-])NCCSCc1csc(CN(C)C)n1 [NIZATIDINE]', 'Not Active');
